Reference source: ChEMBL document CHEMBL3769313

Assay: Cytotoxicity against human Jurkat cells assessed as cell viability at 10 uM after 48 hrs by XTT assay relative to control
Format: cell-based
Conditions: read-out: Activity
I'd appreciate it if you could supply viability at 48 h, 10 µM values for the items below.
Give bare numbers, in %.

Here is how some compounds turned out for viability at 48 h, 10 µM.
{"SMILES REPR": "C[C@@H](NC(=O)OCC(F)(F)C(F)F)c1nc2ccc(F)cc2s1", "VALUE REPORTED": 85.3}
{"SMILES REPR": "CCOC(=O)N[C@H](C)c1nc2ccc(F)cc2s1", "VALUE REPORTED": 87.6}
{"SMILES REPR": "C[C@@H](NC(=O)OCC(F)(F)Cl)c1nc2ccc(F)cc2s1", "VALUE REPORTED": 86.6}

Continue with the compound presented below.
For this compound ( `CCCCOC(=O)N[C@H](C)c1nc2ccc(F)cc2s1` ), measured viability at 48 h, 10 µM is 80.2

* * *

Experiment: Cytotoxicity against human Jurkat cells assessed as cell viability at 1 uM after 48 hrs by XTT assay relative to control
Assay type: cell-based
Conditions: read-out: Activity
I'd appreciate it if you could supply viability at 48 h, 1 µM values for the items below.
Numbers only, in %.

Here is how some compounds turned out for viability at 48 h, 1 µM.
{"SMILES REPR": "CCOC(=O)N[C@H](C)c1nc2ccc(F)cc2s1", "DISPLAY UNIT": "%", "VALUE REPORTED": 87.4}
{"SMILES REPR": "CCCCOC(=O)N[C@H](C)c1nc2ccc(F)cc2s1", "DISPLAY UNIT": "%", "VALUE REPORTED": 90.3}
{"SMILES REPR": "C[C@@H](NC(=O)OCC(F)(F)C(F)F)c1nc2ccc(F)cc2s1", "DISPLAY UNIT": "%", "VALUE REPORTED": 93}

Continue with the compound presented below.
For this compound ( `C[C@@H](NC(=O)OCC(F)(F)Cl)c1nc2ccc(F)cc2s1` ), measured viability at 48 h, 1 µM is 91.1

* * *

I'd appreciate it if you could supply pIC50 values for the items below.
Biological target: Acetylcholinesterase (Electrophorus electricus)
Sequence (O42275 whole entry): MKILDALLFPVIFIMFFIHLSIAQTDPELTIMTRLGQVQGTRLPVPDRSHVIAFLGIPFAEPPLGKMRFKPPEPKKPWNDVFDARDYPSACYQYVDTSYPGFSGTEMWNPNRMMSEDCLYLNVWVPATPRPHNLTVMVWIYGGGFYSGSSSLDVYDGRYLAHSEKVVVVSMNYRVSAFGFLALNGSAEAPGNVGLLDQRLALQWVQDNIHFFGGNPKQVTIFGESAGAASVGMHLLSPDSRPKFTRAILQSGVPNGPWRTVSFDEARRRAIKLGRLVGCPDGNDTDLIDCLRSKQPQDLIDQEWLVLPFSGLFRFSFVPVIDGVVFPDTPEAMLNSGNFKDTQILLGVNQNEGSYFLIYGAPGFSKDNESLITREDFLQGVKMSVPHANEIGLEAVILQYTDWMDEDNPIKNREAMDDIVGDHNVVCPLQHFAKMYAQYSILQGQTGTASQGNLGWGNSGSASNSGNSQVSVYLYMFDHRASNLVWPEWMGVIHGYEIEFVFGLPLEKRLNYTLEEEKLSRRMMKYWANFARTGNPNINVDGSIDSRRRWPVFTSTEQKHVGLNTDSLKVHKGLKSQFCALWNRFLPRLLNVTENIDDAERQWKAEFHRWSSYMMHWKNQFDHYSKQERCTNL
Answers are plain numbers, as −log10 of the molar value.

Here is how some compounds turned out for pIC50.
{"SMILES REPR": "C[C@@H](NC(=O)OCCCCl)c1nc2ccc(F)cc2s1", "pIC50": 4.09}
{"SMILES REPR": "C[C@@H](NC(=O)OCC(F)(F)C(F)(F)C(F)(F)F)c1nc2ccc(F)cc2s1", "pIC50": 4.09}
{"SMILES REPR": "C[C@@H](NC(=O)OCC(F)(F)Cl)c1nc2ccc(F)cc2s1", "pIC50": 5.09}

Lab note: each compound below needs its pIC50 filled in.
1. C[C@@H](NC(=O)OCC(Cl)(Cl)Cl)c1nc2ccc(F)cc2s1
2. COCCOC(=O)N[C@H](C)c1nc2ccc(F)cc2s1

*A*
[4.04, 4.25]

Lab note: each compound below needs its pIC50 filled in.
1. CCCCOC(=O)N[C@H](C)c1nc2ccc(F)cc2s1
2. C[C@@H](NC(=O)OCC(F)(F)C(F)F)c1nc2ccc(F)cc2s1
3. CC(C)OC(=O)N[C@H](C)c1nc2ccc(F)cc2s1

*A*
1: 5.03; 2: 5.17; 3: 4.78

Lab note: each compound below needs its pIC50 filled in.
1. COC(=O)N[C@H](C)c1nc2ccc(F)cc2s1
2. CC(C)COC(=O)N[C@H](C)c1nc2ccc(F)cc2s1
3. C[C@@H](NC(=O)OCC(F)(F)F)c1nc2ccc(F)cc2s1

*A*
1. 4.87
2. 4.89
3. 4.39
